- Measured Target: HLA-B*08:01
- Assay Text: IEDB peptide-MHC binding, purified MHC/direct/fluorescence; filed as Kd, often an IC50 or EC50 that approximates it; bounds were set here for any values at or beyond the usual limits of such assays
- Applied Conditions: source organism: Pseudomonas aeruginosa
Measurement Name: Kd (µM)
I only need the number, in µM, no unit after it.

Assay HLA-B*08:01, sample "FSDARLAKL" , Kd read: 5.3

----------
- Measured Target: HLA-B*07:02
- Assay Text: IEDB peptide-MHC binding, purified MHC/direct/fluorescence; filed as Kd, often an IC50 or EC50 that approximates it; bounds were set here for any values at or beyond the usual limits of such assays
- Applied Conditions: source organism: Salmonella enterica
Measurement Name: pKd
Units for pKd: none; it is -log10 of a concentration expressed in mol/L.

So for "YLRNAGAAM" , the logged pKd turned out to be 8.89

----------
- Measured Target: HLA-A*24:02
- Assay Text: IEDB peptide-MHC binding, purified MHC/competitive/radioactivity; filed as Kd, often an IC50 or EC50 that approximates it; bounds were set here for any values at or beyond the usual limits of such assays
- Applied Conditions: source organism: SARS coronavirus Tor2
Each entry below carries its reported pKd.
Units for pKd: none; it is -log10 of a concentration expressed in mol/L.

Recorded results for 5 sequences are shown here.
[[record]]
chain = "AYSFLPGVY"
measurement_name = "pKd"
measured_result = 7.51

[[record]]
chain = "QFKDNVILL"
measurement_name = "pKd"
measured_result = 5.95

[[record]]
chain = "DYSVLYNSTF"
measurement_name = "pKd"
measured_result = 7.62

[[record]]
chain = "LYLYALIYF"
measurement_name = "pKd"
measured_result = 9.00

[[record]]
chain = "AFRDVLVVL"
measurement_name = "pKd"
measured_result = 5.17


Consider the additional sequence presented here.
Assay HLA-A*24:02, sample "PFWITAIYVF" , pKd read: 8.72

----------
- Measured Target: HLA-B*08:02
- Assay Text: IEDB peptide-MHC binding, purified MHC/direct/fluorescence; filed as Kd, often an IC50 or EC50 that approximates it; bounds were set here for any values at or beyond the usual limits of such assays
- Applied Conditions: source organism: Ravn virus - Ravn, Kenya, 1987
Measurement Name: Kd

So for "YLAPSYRNF" , the logged Kd turned out to be ≥ 20 µM

----------
- Measured Target: HLA-A*11:01
- Assay Text: IEDB peptide-MHC binding, purified MHC/competitive/fluorescence; bounds were set here for any values at or beyond the usual limits of such assays
- Applied Conditions: source organism: West Nile virus
Measurement Name: IC50 (nM)
I only need the number, in nM, no unit after it.

So for "GTSGSPIVDK" , the logged IC50 turned out to be 212

----------
- Measured Target: HLA-A*29:02
- Assay Text: IEDB peptide-MHC binding, purified MHC/competitive/radioactivity; filed as Kd, often an IC50 or EC50 that approximates it; bounds were set here for any values at or beyond the usual limits of such assays
- Applied Conditions: source organism: Mammarenavirus lassaense
Measurement Name: pKd
Units for pKd: none; it is -log10 of a concentration expressed in mol/L.

So for "AGFSAGLTY" , the logged pKd turned out to be 7.20

----------
- Measured Target: HLA-A*02:03
- Assay Text: IEDB peptide-MHC binding, purified MHC/direct/fluorescence; filed as Kd, often an IC50 or EC50 that approximates it; bounds were set here for any values at or beyond the usual limits of such assays
- Applied Conditions: source organism: Entamoeba histolytica HM-1:IMSS
Measurement Name: Kd

Assay HLA-A*02:03, sample "DSFAKQPQW" , Kd read: ≥ 20 µM

----------
- Measured Target: HLA-B*46:01
- Assay Text: IEDB peptide-MHC binding, purified MHC/direct/fluorescence; filed as Kd, often an IC50 or EC50 that approximates it; bounds were set here for any values at or beyond the usual limits of such assays
- Applied Conditions: source organism: Influenza A virus (A/SW/KS/13481-T/00(H1N2))
Measurement Name: Kd

So for "HEKGINPNY" , the logged Kd turned out to be ≥ 20 µM

----------
- Measured Target: HLA-C*15:02
- Assay Text: IEDB peptide-MHC binding, purified MHC/direct/fluorescence; filed as Kd, often an IC50 or EC50 that approximates it; bounds were set here for any values at or beyond the usual limits of such assays
- Applied Conditions: source organism: Listeria monocytogenes EGD-e
pKd: −log10 of the molar value.
Measurement Name: pKd

So for "RYPRSVLTF" , the logged pKd turned out to be ≤ 4.70

----------
- Measured Target: HLA-A*11:01
- Assay Text: IEDB peptide-MHC binding, purified MHC/competitive/fluorescence; bounds were set here for any values at or beyond the usual limits of such assays
- Applied Conditions: source organism: Sudan ebolavirus
Measurement Name: IC50

So for "HLASTDQLK" , the logged IC50 turned out to be 13.8 µM

So for "ENKKNLSEQ" , the logged IC50 turned out to be ≥ 75.4 µM

----------
- Measured Target: HLA-A*33:01
- Assay Text: IEDB peptide-MHC binding, purified MHC/competitive/radioactivity; filed as Kd, often an IC50 or EC50 that approximates it; bounds were set here for any values at or beyond the usual limits of such assays
- Applied Conditions: source organism: Dengue virus 1 Nauru/West Pac/1974
Measurement Name: pKd
Units for pKd: none; it is -log10 of a concentration expressed in mol/L.

Assay HLA-A*33:01, sample "DSYTQVCDHR" , pKd read: 5.74

----------
- Measured Target: HLA-A*03:01
- Assay Text: IEDB peptide-MHC binding, purified MHC/direct/fluorescence; filed as Kd, often an IC50 or EC50 that approximates it; bounds were set here for any values at or beyond the usual limits of such assays
- Applied Conditions: source organism: Ectopseudomonas mendocina
Measurement Name: Kd

So for "FSDARLAKL" , the logged Kd turned out to be ≥ 20 µM

----------
- Measured Target: HLA-B*44:03
- Assay Text: IEDB peptide-MHC binding, purified MHC/competitive/radioactivity; filed as Kd, often an IC50 or EC50 that approximates it; bounds were set here for any values at or beyond the usual limits of such assays
- Applied Conditions: source organism: Mammarenavirus machupoense
Measurement Name: Kd

So for "EEVLDVCPLG" , the logged Kd turned out to be ≥ 51.1 µM

----------
- Measured Target: HLA-A*02:01
- Assay Text: IEDB peptide-MHC binding, purified MHC/direct/fluorescence; filed as Kd, often an IC50 or EC50 that approximates it; bounds were set here for any values at or beyond the usual limits of such assays
- Applied Conditions: source organism: Ebola virus - Gabon (1994-1997)
Measurement Name: Kd (nM)
I only need the number, in nM, no unit after it.

Assay HLA-A*02:01, sample "VLSDLCNFL" , Kd read: 5

----------
- Measured Target: HLA-A*03:01
- Assay Text: IEDB peptide-MHC binding, purified MHC/direct/fluorescence; filed as Kd, often an IC50 or EC50 that approximates it; bounds were set here for any values at or beyond the usual limits of such assays
- Applied Conditions: source organism: Crocodilepox virus
pKd: −log10 of the molar value.
Measurement Name: pKd

So for "VVARLGVPY" , the logged pKd turned out to be ≤ 4.70

----------
- Measured Target: HLA-A*32:01
- Assay Text: IEDB peptide-MHC binding, purified MHC/competitive/radioactivity; filed as Kd, often an IC50 or EC50 that approximates it; bounds were set here for any values at or beyond the usual limits of such assays
- Applied Conditions: source organism: Dengue virus 1 Singapore/S275/1990
Measurement Name: Kd

Assay HLA-A*32:01, sample "AAIGKAWEEG" , Kd read: ≥ 69.9 µM

----------
- Measured Target: HLA-B*51:01
- Assay Text: IEDB peptide-MHC binding, purified MHC/competitive/radioactivity; filed as Kd, often an IC50 or EC50 that approximates it; bounds were set here for any values at or beyond the usual limits of such assays
- Applied Conditions: source organism: Triticum aestivum
Each entry below carries its reported Kd.
I only need the number, in µM, no unit after it.

[[record]]
chain = "QPSSQVSF"
measurement_name = "Kd"
scale_unit = "µM"
measured_result = 2.96


Consider the additional sequence presented here.
Assay HLA-B*51:01, sample "YPQPQLPY" , Kd read: 10.9

----------
- Measured Target: HLA-B*58:01
- Assay Text: IEDB peptide-MHC binding, purified MHC/direct/fluorescence; filed as Kd, often an IC50 or EC50 that approximates it; bounds were set here for any values at or beyond the usual limits of such assays
- Applied Conditions: source organism: Ectopseudomonas mendocina
pKd: −log10 of the molar value.
Measurement Name: pKd

So for "FSDARLAKL" , the logged pKd turned out to be ≤ 4.70

----------
- Measured Target: HLA-A*68:02
- Assay Text: IEDB peptide-MHC binding, purified MHC/direct/fluorescence; filed as Kd, often an IC50 or EC50 that approximates it; bounds were set here for any values at or beyond the usual limits of such assays
- Applied Conditions: source organism: Orthohantavirus tulaense
pKd: −log10 of the molar value.
Measurement Name: pKd

So for "ILMARYMSK" , the logged pKd turned out to be ≤ 4.70
